Target: Human SCD-1 (Homo sapiens, UniProt O00767)
Construct: adding 125 μg of microsomal fraction of HepG2 cells; host or cells: HepG2 human hepatocarcinoma cells (microsomal fraction)
Sequence (O00767 whole entry): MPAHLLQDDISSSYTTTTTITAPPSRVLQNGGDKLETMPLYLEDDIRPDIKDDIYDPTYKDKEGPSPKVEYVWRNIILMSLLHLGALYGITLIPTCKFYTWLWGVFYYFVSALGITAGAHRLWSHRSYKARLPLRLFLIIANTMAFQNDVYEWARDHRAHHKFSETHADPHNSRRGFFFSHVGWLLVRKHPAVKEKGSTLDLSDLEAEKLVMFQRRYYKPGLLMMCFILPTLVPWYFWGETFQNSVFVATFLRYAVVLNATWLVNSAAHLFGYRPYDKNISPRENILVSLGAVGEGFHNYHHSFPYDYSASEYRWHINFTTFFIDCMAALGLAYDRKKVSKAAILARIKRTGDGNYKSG
Experiment: Human SCD-1 enzymatic activity from microsomes of HepG2 cells (conversion of stearic acid into oleic acid)
Assay type: biochemical
Settings: 10 μM compound; microsomal fraction of HepG2 cells; relative to carrier 0.1% DMSO; read-out: HSCD-1 (HEPG2) % inh. (10 μM)
Experimental: In vitro: Human SCD-1 enzymatic activity from microsomes of HepG2 cells after treatment with inhibitory compounds (inhibition %). Human hepatocarcinoma HepG2 cells (ATCC, HB-8065) are grown to confluence and then trypsinized. […] The enzymatic reaction measures the conversion of stearic acid (a C18:0 fatty acid) into oleic acid (C18:1 fatty acid) by SCD-1. […] Enzymatic activity is calculated in picomoles of stearic acid converted into oleic acid per minute and per mg of protein. […]
Measurement name: inhibition at 10 µM (%)
Enter your answer as a number in %; do not include the unit.

// query Give the measured inhibition at 10 µM of `Cn1c(=O)c(N2CCC(Oc3ccccc3C(F)(F)F)CC2)nn(-c2ccc(F)cc2)c1=O` .
// result 87

// query What does the record list as inhibition at 10 µM for `CCCCCCCn1c(=O)c(N2CCC(Oc3ccccc3C(F)(F)F)CC2)nn(CCC#N)c1=O` ?
// result 71

// query Requested read-out: inhibition at 10 µM. Entry: `CCOCCn1nc(N2CCC(Oc3ccccc3C(F)(F)F)CC2)c(=O)n(C)c1=O`
// result 74

// query Using the record for `CC(C)CCn1nc(N2CCN(C(=O)c3cc(F)ccc3C(F)(F)F)CC2)c(=O)n(C)c1=O` , report its inhibition at 10 µM.
// result 64

// query So what does the record say about inhibition at 10 µM for `Cn1c(=O)c(N2CCC(Oc3ccccc3C(F)(F)F)CC2)nn(CCO)c1=O` ?
// result 100

// query May I ask what inhibition at 10 µM has been recorded for `Cn1c(=O)[nH]nc(N2CCN(C(=O)c3ccccc3C(F)(F)F)CC2)c1=O` ?
// result 77

// query # inhibition at 10 µM lookup, item `Cn1c(=O)c(N2CCN(Cc3ccccc3C(F)(F)F)CC2)nn(CCCC(F)(F)F)c1=O`
// result 71

// query I have this compound here, `Cn1nc(N2CCC(Oc3ccccc3F)CC2)c(=O)n(C)c1=O` , and I need its recorded inhibition at 10 µM.
// result 50

// query Tell me the measured inhibition at 10 µM of `O=C(c1ccccc1C(F)(F)F)N1CCN(c2c[nH]c(=O)[nH]c2=O)CC1` , please.
// result 73

// query Record request: inhibition at 10 µM value, item `CCCCCCCn1c(=O)[nH]nc(N2CCC(Oc3ccccc3Cl)CC2)c1=O`
// result 62

// query What does the data say about its inhibition at 10 µM? Entry: `Cn1c(=O)c(N2CCC(Oc3ccccc3Cl)CC2)nn(CCCC(F)(F)F)c1=O`
// result 70

// query Data request, read-out inhibition at 10 µM, for `CNC(=O)Cn1nc(N2CCC(Oc3ccccc3C(F)(F)F)CC2)c(=O)n(C)c1=O`
// result 74

// query Please look up its inhibition at 10 µM: `Cn1c(=O)c(N2CCC(Oc3ccccc3C(F)(F)F)CC2)nn(-c2ccc(C#N)cc2)c1=O`
// result 79

// query Any idea what its inhibition at 10 µM is? The compound is `Cn1c(=O)c(N2CCN(C(=O)c3cc(F)ccc3C(F)(F)F)CC2)nn(CCCC(F)(F)F)c1=O`
// result 84

// query GET /values?readout=inhibition at 10 µM&item= `Cn1c(=O)[nH]nc(N2CCC(Oc3ccccc3C(F)(F)F)CC2)c1=O`
// result 95

// query Query: inhibition at 10 µM; subject: `Cn1c(=O)c(N2CCC(Oc3ccccc3Cl)CC2)nn(CCC#N)c1=O`
// result 73
